assayed_target: HTR6 (Homo sapiens, UniProt P50406)
Construct: purchased Promega (in-house HiBiT-GPCR construct library, NanoBRET)
Sequence (P50406 whole entry): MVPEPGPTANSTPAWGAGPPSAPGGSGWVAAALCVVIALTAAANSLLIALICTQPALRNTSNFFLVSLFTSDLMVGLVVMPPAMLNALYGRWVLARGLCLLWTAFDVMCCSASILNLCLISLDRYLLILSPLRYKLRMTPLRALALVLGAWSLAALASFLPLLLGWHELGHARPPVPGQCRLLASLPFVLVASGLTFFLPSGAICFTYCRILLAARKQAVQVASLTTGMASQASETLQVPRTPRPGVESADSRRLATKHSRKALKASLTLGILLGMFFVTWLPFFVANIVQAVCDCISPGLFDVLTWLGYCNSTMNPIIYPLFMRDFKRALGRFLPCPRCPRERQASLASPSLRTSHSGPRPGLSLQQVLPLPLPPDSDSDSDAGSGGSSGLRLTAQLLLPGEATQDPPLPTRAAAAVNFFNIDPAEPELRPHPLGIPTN
test_summary: NanoBRET screen HiBiT-HTR6 in HEK293
Assay type: binding
condition_info: HTR6; tracer 0.1μM
As shown below, each of these molecules has a reported NanoBRET Fold Response value.
I'd appreciate a reply containing only the number, no unit.

Answered examples (4):
INSERT INTO results (molecule, assay_value) VALUES
  ('COc1ccccc1N1CCN(CCCCN2C(=O)c3ccc(CNC(=O)CCOCCNC(=O)c4ccc(CNC(=O)CCc5ccc6n5[B-](F)(F)[N+]5=C(c7ccc[nH]7)C=CC5=C6)cc4)cc3C2=O)CC1', 0.94),
  ('CCCn1c(=O)c2[nH]c(-c3ccc(OCC(=O)NCCNC(=O)CCOCCNC(=O)c4ccc(CNC(=O)CCc5ccc6n5[B-](F)(F)[N+]5=C(c7ccc[nH]7)C=CC5=C6)cc4)cc3)nc2n(CCC)c1=O', 0.97),
  ('COc1ccccc1N1CCN(CCCCN2C(=O)c3ccc(CNC(=O)CCOCCOCCOCCOCCNC(=O)CCc4ccc5n4[B-](F)(F)[N+]4=C(c6ccc[nH]6)C=CC4=C5)cc3C2=O)CC1', 0.99),
  ('Cc1cc2c(s1)Nc1ccccc1N=C2N1CCN(CCCNC(=O)CCOCCOCCOCCOCCNC(=O)CCc2ccc3n2[B-](F)(F)[N+]2=C(c4ccc[nH]4)C=CC2=C3)CC1', 1.09);

input: Which NanoBRET Fold Response is reported with HTR6 (Homo sapiens, UniProt P50406) for this entry: O=C(CCc1ccc2n1[B-](F)(F)[N+]1=C(c3ccc[nH]3)C=CC1=C2)NCc1ccc(C(=O)NCCOCCC(=O)N[C@@H]2CC[C@@]3(O)[C@H]4Cc5ccc(O)c6c5[C@@]3(CCN4CC3CC3)[C@H]2O6)cc1 [Naltrexone-3-NB590] ?
output: 0.77

input: Which NanoBRET Fold Response is reported with HTR6 (Homo sapiens, UniProt P50406) for this entry: CC(C)N(CC[C@H](c1ccccc1)c1cc(CCNC(=O)c2ccc(CNC(=O)CCc3ccc4n3[B-](F)(F)[N+]3=C(c5ccc[nH]5)C=CC3=C4)cc2)ccc1O)C(C)C ?
output: 0.96
